Items are presented alongside their recorded viability at 100 µM.
Test system: HCT-116
methodDescription: cells
Type: cell-based, human
conditionLabel: Homo sapiens, HCT-116, read-out: Cell viability percentage at 100 μM HCT-116
Description: Antitumoral activity of the compounds of the present invention was evaluated by determining in vitro cell growth inhibition of 2 human colon adenocarcinome cell lines. The SBR (Sulphorhodamine B) protein dye assay described by the NCI (National Cancer Institute) was used. Results of Table 2 illustrate the antiproliferative activity of some of the compounds of the present invention versus the one obtained with exisulind (sulindac sulfone).

testSmiles | viability at 100 µM (%)
OCc1cn(-c2ccc(-c3cc(CNc4ccon4)on3)cc2F)cn1 | 57.1
N#C/C=C/c1ccn(-c2ccc(-c3cc(CNc4ccon4)on3)cc2F)c1 | 77.1
Cc1cn(-c2ccc(-c3cc(CNc4ccon4)on3)cc2F)cn1 | 48.6
Cc1cc(NCc2cc(-c3ccc(-n4ccc(/C=C/C#N)c4)c(F)c3)no2)sn1 | 18.9
N#C/C=C/c1cn(-c2ccc(-c3cc(CNc4ccon4)on3)cc2F)cn1 | 64.7
